Experiment: NCI Yeast Anticancer Drug Screen. Data for the rad50 strain (AID 155)
Conditions: S. cerevisiae rad50 strain growth inhibition; at 5.0 µM (retest, dose inferred, filed as 0.5); stronger effect = higher value
The panel holds about 79,000 compounds, 15% with a hit somewhere; the sample as a whole holds those more often.
// NOT MET strictly below 20% in growth inhibition; MET otherwise

Q: Determine whether measured growth inhibition meets or exceeds 20% for CN(C)c1ccccc1CN1CCCN(Cc2ccccc2N(C)C)C1
A: NOT MET

Q: Determine whether measured growth inhibition meets or exceeds 20% for Nc1ccc([N+](=O)[O-])cc1Nc1c2ccccc2nc2ccccc12
A: NOT MET

Q: Determine whether measured growth inhibition meets or exceeds 20% for O=[N+]([O-])c1ncn(C2OC(CO)C(O)C2O)c1S (stereo unspecified)
A: NOT MET

Q: Determine whether measured growth inhibition meets or exceeds 20% for O=[N+]([O-])c1cc(Cc2cc([N+](=O)[O-])c3cccnc3c2O)c(O)c2ncccc12
A: MET

Q: Determine whether measured growth inhibition meets or exceeds 20% for CC(c1ccc2cccc(F)c2c1)c1ccccc1C(=O)O (stereo unspecified)
A: NOT MET

Q: Determine whether measured growth inhibition meets or exceeds 20% for O=C1OCCCN1/N=C/c1ccc([N+](=O)[O-])o1
A: NOT MET

Q: Determine whether measured growth inhibition meets or exceeds 20% for NC(=S)Nc1ccccc1O
A: NOT MET

Q: Determine whether measured growth inhibition meets or exceeds 20% for O=C(Nc1ccc(Br)cc1)c1cc(Br)c(O)c(Br)c1O
A: MET

Q: Determine whether measured growth inhibition meets or exceeds 20% for C=C1C(O)C2(O)OCC34C(CC5C(C)=CC(=O)C(O)C5(C)C23)OC(=O)C(OC(=O)C/C=C(\C)CCCCC)C14 (stereo unspecified)
A: MET

Q: Determine whether measured growth inhibition meets or exceeds 20% for CCOC(=O)C(=CCC1NCCc2c1[nH]c1ccccc21)C(=O)OCC (stereo unspecified)
A: MET

Q: Determine whether measured growth inhibition meets or exceeds 20% for COc1ccc(-c2noc(=O)c3ccccc23)cc1
A: NOT MET

Q: Determine whether measured growth inhibition meets or exceeds 20% for COc1ccc(-c2nc3c(C(=O)NCCN(C)C)cccc3c3ccccc23)cc1
A: NOT MET

Q: Determine whether measured growth inhibition meets or exceeds 20% for CCCCN(CCCC)CC(O)c1cc(-c2ccc(Cl)cc2)nc2c(Cl)cccc12 (stereo unspecified)
A: NOT MET

Q: Determine whether measured growth inhibition meets or exceeds 20% for COc1cccc(=O)cc1
A: NOT MET

Q: Determine whether measured growth inhibition meets or exceeds 20% for COc1ccc(N=NN(C)C)cc1
A: NOT MET

Q: Determine whether measured growth inhibition meets or exceeds 20% for [N-]=[N+]=Nc1c([N+](=O)[O-])c(Cl)nc2ccccc12
A: MET

Q: Determine whether measured growth inhibition meets or exceeds 20% for COc1cccc(/C=C2\CCCc3ccccc3C2=O)c1
A: NOT MET

Q: Determine whether measured growth inhibition meets or exceeds 20% for C/C(=N\NC(=S)N1CCC(C)CC1)c1cccc2cccnc12
A: NOT MET

Q: Determine whether measured growth inhibition meets or exceeds 20% for Cc1nnc2nc3c(nn12)c1ccccc1n3C
A: NOT MET

Q: Determine whether measured growth inhibition meets or exceeds 20% for CC(=O)Nc1c([N+](=O)[O-])cc2c3c(cccc13)C=C2
A: NOT MET

Q: Determine whether measured growth inhibition meets or exceeds 20% for CCCCCCCCCCCCOC(=O)C[n+]1cccc(C(N)=O)c1
A: NOT MET

Q: Determine whether measured growth inhibition meets or exceeds 20% for CCOC(=O)Nc1cc2c(cn1)[nH]c1ccccc12
A: NOT MET

Q: Determine whether measured growth inhibition meets or exceeds 20% for [N-]=[N+]=Nc1c([N+](=O)[O-])c(=O)n(-c2ccccc2)c2ccccc12
A: NOT MET

Q: Determine whether measured growth inhibition meets or exceeds 20% for CC1CCN(SSc2nc3ccccc3s2)CC1
A: MET

Q: Determine whether measured growth inhibition meets or exceeds 20% for COc1ccc(NCCN(C)C)c2c(=O)c3ccccc3sc12
A: NOT MET

Q: Determine whether measured growth inhibition meets or exceeds 20% for CN1CCC(CCC(=O)OC(C)(C)C)(CN2c3ccccc3Sc3ccccc32)C1 (stereo unspecified)
A: NOT MET

Q: Determine whether measured growth inhibition meets or exceeds 20% for CN(C)CC1CCCCCC(Br)C1=O (stereo unspecified)
A: NOT MET

Q: Determine whether measured growth inhibition meets or exceeds 20% for CC1CCC2(C)C(CC=C(C=O)C2(O)C=O)C12CO2 (stereo unspecified)
A: MET

Q: Determine whether measured growth inhibition meets or exceeds 20% for CCCCN(CCCC)CCC(=O)c1ccc2c(ccc3ccccc32)c1
A: NOT MET

Q: Determine whether measured growth inhibition meets or exceeds 20% for Cc1c2ccncc2c(C)c2c1[nH]c1ccc(OCCN(C)C)cc12
A: MET

Q: Determine whether measured growth inhibition meets or exceeds 20% for CCCCCCCCCCCCNCCNCCN
A: MET

Q: Determine whether measured growth inhibition meets or exceeds 20% for O=C(O)c1cccc2c1Oc1c(cccc1C(=O)O)S2
A: NOT MET

Q: Determine whether measured growth inhibition meets or exceeds 20% for CCCc1cc(-c2ccc(O)c(CCC)c2)ccc1O
A: MET

Q: Determine whether measured growth inhibition meets or exceeds 20% for O=C(CC1(O)CCCCC1)OC1CCCC1
A: NOT MET

Q: Determine whether measured growth inhibition meets or exceeds 20% for N#CC(C#N)=c1c2nsnc2c(=C(C#N)C#N)c2nsnc12
A: MET

Q: Determine whether measured growth inhibition meets or exceeds 20% for C=CC(=O)N1C/C(=C\c2ccccc2)C(=O)/C(=C/c2ccccc2)C1
A: MET

Q: Determine whether measured growth inhibition meets or exceeds 20% for CN(C)C(=S)/N=c1\ss/c(=N\S(=O)(=O)c2ccccc2)n1-c1ccccc1
A: NOT MET

Q: Determine whether measured growth inhibition meets or exceeds 20% for CCCCCc1[nH]nc(C(=O)OC)c1N=NN1CCOCC1
A: MET

Q: Determine whether measured growth inhibition meets or exceeds 20% for O=C(n1c2ccccc2c2n[nH]c(=S)nc21)C(F)(F)F
A: NOT MET

Q: Determine whether measured growth inhibition meets or exceeds 20% for COc1ccc2nc(N/N=C/c3ccccn3)cc(C)c2c1
A: NOT MET

Q: Determine whether measured growth inhibition meets or exceeds 20% for CC(C)[C@@H]1CC[C@@H](C)C[C@H]1OC(=O)NN
A: NOT MET

Q: Determine whether measured growth inhibition meets or exceeds 20% for CCCC(O)[C@@]1(CC)CC(C)C(O)(C2(C)C[C@H](C)[C@@H](C(CC)C(=O)C(C)[C@@H](O)[C@H](C)C3OC(O)(C(CC)C(=O)O)[C@@H](C)C(O)C3CC)O2)O1 (stereo partly specified)
A: NOT MET

Q: Determine whether measured growth inhibition meets or exceeds 20% for CCC[CH2][Sn]([S][Sn]([CH2]CCC)([c]1ccccc1)[c]1ccccc1)([c]1ccccc1)[c]1ccccc1
A: MET

Q: Determine whether measured growth inhibition meets or exceeds 20% for Brc1ccc(CCNCCN2CCCCC2)cc1
A: NOT MET

Q: Determine whether measured growth inhibition meets or exceeds 20% for O=C(Nc1cccc2ccccc12)OCC1CCc2ccccc2C1 (stereo unspecified)
A: NOT MET

Q: Determine whether measured growth inhibition meets or exceeds 20% for CC1=C(C(=O)Nc2cccc(Cl)c2)C(c2ccc([N+](=O)[O-])cc2)C(C(=O)Nc2cccc(Cl)c2)=C(C)N1
A: MET
